- SYSTEM_NAME: hMeprin α (Homo sapiens)
- Sequence (Q16819 66-746): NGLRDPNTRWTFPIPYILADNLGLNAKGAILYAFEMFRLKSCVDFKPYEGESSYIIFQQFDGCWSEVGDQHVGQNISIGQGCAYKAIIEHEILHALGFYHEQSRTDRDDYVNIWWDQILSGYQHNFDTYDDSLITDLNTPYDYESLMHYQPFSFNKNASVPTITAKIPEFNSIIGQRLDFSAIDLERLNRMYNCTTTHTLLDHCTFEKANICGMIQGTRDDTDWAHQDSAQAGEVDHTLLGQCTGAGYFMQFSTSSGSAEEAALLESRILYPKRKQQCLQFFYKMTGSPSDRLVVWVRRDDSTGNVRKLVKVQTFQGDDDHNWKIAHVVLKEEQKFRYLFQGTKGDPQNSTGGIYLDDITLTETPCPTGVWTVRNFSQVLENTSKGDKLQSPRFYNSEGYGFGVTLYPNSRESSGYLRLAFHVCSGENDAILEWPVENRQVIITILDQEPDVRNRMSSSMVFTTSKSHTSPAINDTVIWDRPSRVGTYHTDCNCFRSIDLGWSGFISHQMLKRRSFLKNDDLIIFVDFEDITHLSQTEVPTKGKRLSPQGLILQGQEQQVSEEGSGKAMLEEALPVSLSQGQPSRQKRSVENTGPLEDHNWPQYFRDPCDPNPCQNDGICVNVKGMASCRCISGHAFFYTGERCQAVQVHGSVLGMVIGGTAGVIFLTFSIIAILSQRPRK
- EXPERIMENT_NOTES: biochemical
- Format: biochemical
- CONDITION_NOTES: average IC50; 10 μM substrate, 30° C., 40 mM HEPES pH 7.4; read-out: Meprin Alpha IC50
List of IC50 values.
All answers are understood in µM, so give the number only.

// known answers, use as guide
{"COMPOUND": "COc1ccc(CN(CC(=O)NO)Cc2cccc(C(=O)O)c2)cc1F [Example 10]", "IC50, µM": 3.74}
{"COMPOUND": "CCOC(=O)c1cccc(CN(CC(=O)NO)Cc2cccc(C(=O)O)c2)c1 [Example 59]", "IC50, µM": 4.13}
{"COMPOUND": "O=C(CN(Cc1cccc(O)c1F)Cc1cccc(O)c1F)NO [Example 51]", "IC50, µM": 1.21}
{"COMPOUND": "O=C(CN(Cc1ccc(F)c(O)c1)Cc1ccc(F)c(O)c1)NO [Example 50]", "IC50, µM": 0.986}
{"COMPOUND": "O=C(CN(Cc1cccc(OC(F)F)c1)Cc1cccc(OC(F)F)c1)NO [Example 72]", "IC50, µM": 5.68}

Would you mind telling me what IC50 value was observed for O=C(CN(Cc1ccc2c(c1)OCCO2)Cc1ccc2c(c1)OCCO2)NO [Example 63] ? 1.52

Name the recorded IC50 for O=C(O)CC[C@@H](NCc1cccc(C(=O)O)c1)C(=O)NO [Example 44] . 32.1

###

- SYSTEM_NAME: hMeprin β (Homo sapiens)
- Sequence (Q16820 62-701): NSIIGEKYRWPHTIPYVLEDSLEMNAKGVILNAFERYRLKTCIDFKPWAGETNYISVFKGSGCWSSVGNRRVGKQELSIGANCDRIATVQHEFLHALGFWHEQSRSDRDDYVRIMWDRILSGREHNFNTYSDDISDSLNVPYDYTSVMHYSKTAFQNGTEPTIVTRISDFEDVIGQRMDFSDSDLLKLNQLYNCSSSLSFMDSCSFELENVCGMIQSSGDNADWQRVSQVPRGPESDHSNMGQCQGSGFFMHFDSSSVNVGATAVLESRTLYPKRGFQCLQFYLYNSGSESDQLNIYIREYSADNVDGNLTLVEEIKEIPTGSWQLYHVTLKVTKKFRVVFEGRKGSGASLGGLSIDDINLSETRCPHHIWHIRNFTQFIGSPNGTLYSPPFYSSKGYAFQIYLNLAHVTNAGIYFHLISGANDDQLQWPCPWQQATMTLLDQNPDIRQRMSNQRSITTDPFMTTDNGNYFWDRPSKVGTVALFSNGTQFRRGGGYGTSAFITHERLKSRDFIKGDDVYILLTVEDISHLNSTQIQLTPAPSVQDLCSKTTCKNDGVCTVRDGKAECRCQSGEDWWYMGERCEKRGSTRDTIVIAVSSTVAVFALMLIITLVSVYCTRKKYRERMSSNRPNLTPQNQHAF
- EXPERIMENT_NOTES: Enzymatic assay, cleavage of internally quenched peptide substrate, hMeprin β
- Type: biochemical
pIC50: −log10 of the molar value.
Think of 5 as a floor: if pIC50 stands on it or above, it is label 1; beneath it, label 0.

See these solved cases before continuing.
{"MOLECULE": "O=C(O)c1cccc(CN2CCCC2C(=O)NO)c1 (stereo in doubt) [Example 12]", "CLASS_NAME": "label 0"}
{"MOLECULE": "COc1ccc(CN(CC(=O)NO)Cc2cccc(OC)c2)cc1", "CLASS_NAME": "label 0"}
{"MOLECULE": "COc1cc(CN(CC(=O)NO)Cc2cc(OC)c(OC)c(OC)c2)cc(OC)c1OC", "CLASS_NAME": "label 0"}
{"MOLECULE": "COc1ccc(CN(CC(=O)NO)Cc2ccc3c(c2)OCO3)cc1", "CLASS_NAME": "label 0"}

Please indicate if the recorded pIC50 for O=C(CN(Cc1ccc(C(=O)O)cc1)Cc1ccc(C(=O)O)cc1)NO meets or exceeds 5. label 1

Evaluate COc1cccc(CN(CC(=O)NO)Cc2cccc(OC)c2)c1 : pIC50 at minimum 5? label 0

# check: pIC50 of COc1ccc(CN(CC(=O)NO)Cc2cccc(C(=O)O)c2)cc1F is greater than or equal to 5 label 1

Could you please find out whether O=C(CN(Cc1ccc(Cl)cc1F)Cc1ccc(Cl)cc1F)NO has pIC50 that meets 5 or exceeds it? label 0

Test whether the molecule COC(=O)c1cccc(CN(CC(=O)NO)Cc2cccc(C(N)=O)c2)c1 records pIC50 of 5 or higher. label 0

###

Catalogue of Ki readings, one per entry.
- SYSTEM_NAME: hMeprin α (Homo sapiens)
- Sequence (Q16819 66-746): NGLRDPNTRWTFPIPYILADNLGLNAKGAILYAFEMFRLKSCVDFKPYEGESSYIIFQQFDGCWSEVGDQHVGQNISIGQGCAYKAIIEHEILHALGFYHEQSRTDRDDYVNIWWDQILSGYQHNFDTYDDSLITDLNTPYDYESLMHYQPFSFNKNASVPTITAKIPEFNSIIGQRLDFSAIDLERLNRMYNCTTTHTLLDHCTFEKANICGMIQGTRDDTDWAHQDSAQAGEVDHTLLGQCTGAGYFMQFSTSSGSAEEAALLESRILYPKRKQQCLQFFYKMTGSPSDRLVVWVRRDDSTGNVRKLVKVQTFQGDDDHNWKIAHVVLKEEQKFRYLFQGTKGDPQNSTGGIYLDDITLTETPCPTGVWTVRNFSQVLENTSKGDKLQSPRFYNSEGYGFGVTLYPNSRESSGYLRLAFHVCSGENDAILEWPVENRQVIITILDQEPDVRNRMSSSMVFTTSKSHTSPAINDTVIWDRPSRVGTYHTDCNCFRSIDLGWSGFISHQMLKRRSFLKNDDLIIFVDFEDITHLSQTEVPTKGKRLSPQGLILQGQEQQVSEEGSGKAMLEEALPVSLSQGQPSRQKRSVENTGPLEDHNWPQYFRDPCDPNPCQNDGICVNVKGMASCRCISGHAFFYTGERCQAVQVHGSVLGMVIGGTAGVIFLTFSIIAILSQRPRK
- EXPERIMENT_NOTES: biochemical
- Type: biochemical
- CONDITION_NOTES: average Ki; 4 substrate concentrations (5-40 μM), 30° C., 40 mM HEPES pH 7.4; read-out: Meprin Alpha Ki
Quick note: give the figure in nM, leave out the unit.

{"COMPOUND": "N#Cc1ccc(CN(CC(=O)NO)Cc2ccc(C#N)cc2)cc1 [Example 55]", "PARAMETER_MEASURED": "Ki", "VALUE": 1600}
{"COMPOUND": "COc1c(F)ccc(CN(CC(=O)NO)Cc2ccc(F)c(OC)c2F)c1F [Example 58]", "PARAMETER_MEASURED": "Ki", "VALUE": 726}
{"COMPOUND": "NC(=O)c1cccc(CN(CC(=O)NO)Cc2cccc(C(N)=O)c2)c1 [Example 41]", "PARAMETER_MEASURED": "Ki", "VALUE": 852}
{"COMPOUND": "O=C(CCN(Cc1ccccc1)Cc1ccccc1)NO [Example 71, 3-(dibenzylamino) propanehydroxamic acid]", "PARAMETER_MEASURED": "Ki", "VALUE": 612}

Recorded Ki for O=C(CN(Cc1cccc(C(=O)O)c1)Cc1cccc(C(=O)O)c1)NO [Example 2] , please? 10400

Form field: reported Ki of O=C(CN(Cc1ccccc1)Cc1ccccc1)NO [Example 67, 2-(dibenzylamino) ethanehydroxamic acid] 3090

If you can, please state the reported Ki value of O=C(CN(Cc1cccc(OC(F)F)c1)Cc1cccc(OC(F)F)c1)NO [Example 72] . 2150

Form field: reported Ki of COc1cc(CN(CC(=O)NO)Cc2cc(OC)c(OC)c(OC)c2)cc(OC)c1OC [Example 61] 1180

For the compound shown here, COc1c(F)ccc(CN(CCC(=O)NO)Cc2ccc(F)c(OC)c2F)c1F [Example 64] , give the reported Ki. 332

###

- SYSTEM_NAME: hMeprin α (Homo sapiens)
- EXPERIMENT_NOTES: biochemical
- Type: biochemical
- CONDITION_NOTES: average IC50; 10 μM substrate, 30° C., 40 mM HEPES pH 7.4; read-out: Meprin Alpha IC50
Rule: measured IC50 below 3000 nM gets Criterion met; anything equal to or greater than 3000 nM gets Criterion not met.

{"COMPOUND": "O=C(CN(Cc1ccccc1)Cc1ccccc1)NO [Example 67, 2-(dibenzylamino) ethanehydroxamic acid]", "SYSTEM_NAME": "hMeprin α (Homo sapiens)", "CLASS_NAME": "Criterion not met"}
{"COMPOUND": "COc1c(Cl)ccc(CN(CC(=O)NO)Cc2ccc(Cl)c(OC)c2F)c1F", "SYSTEM_NAME": "hMeprin α (Homo sapiens)", "CLASS_NAME": "Criterion not met"}
{"COMPOUND": "O=C(O)c1cccc(CN[C@@H](Cc2ccccc2)C(=O)NO)c1", "SYSTEM_NAME": "hMeprin α (Homo sapiens)", "CLASS_NAME": "Criterion not met"}
{"COMPOUND": "NC(=O)c1cccc(CN(CC(=O)NO)Cc2cccc(C(N)=O)c2)c1", "SYSTEM_NAME": "hMeprin α (Homo sapiens)", "CLASS_NAME": "Criterion met"}
{"COMPOUND": "COc1cc(CN(CC(=O)NO)Cc2cc(OC)c3c(c2)OCO3)cc2c1OCO2", "SYSTEM_NAME": "hMeprin α (Homo sapiens)", "CLASS_NAME": "Criterion met"}

Answer whether the compound N#Cc1cccc(CN(CCC(=O)NO)Cc2cccc(C#N)c2)c1 has IC50 strictly less than 3000 nM Criterion met

Input O=C(CN(Cc1cc(F)c(O)c(F)c1)Cc1cc(F)c(O)c(F)c1)NO ; condition: IC50 strictly below 3000 nM. Does it hold? Criterion met

API: query returns whether the compound falls strictly under 3000 nM in IC50. Query: O=C(CCN(Cc1ccccc1)Cc1ccccc1)NO [Example 71, 3-(dibenzylamino) propanehydroxamic acid] Criterion met
